System: microRNA 21
experiment: Inhibition of Dicer-mediated pre-miRNA-21 (unknown origin) processing using […] as substrate incubated for 15 mins by cat-ELCCA assay
Assay type: nucleic-acid assay
Calls of active or inactive are those of the source. No cut-off for these calls is given here. *1 amine or outer side, *2 acyl side, *3 side chain or, on linkers, in order; H or OH if unused. Where a SMILES comes first, the peptide text is derived from it. Bridges are numbered along the chain shown (N, C = ends). X1 = CCC(C)CCCCCCCCC(CC(=O)[*:1])O[*:2]; X7 = CC(C)CCCCCCCCCC(CC(=O)[*:1])O[*:2]; X3 = CC(C)CCCCCCCCC(CC(=O)[*:1])O[*:2]; X4 = CCCCCCCCCCC(CC(=O)[*:1])O[*:2]
Assign a class; possible classes are active, inactive

| compound | assigned.category |
| --- | --- |
| CC(C)CCCCCCCCC1CC(=O)N[C@@H](CCC(=O)O)C(=O)N[C@@H](CC(C)C)C(=O)N[C@@H](CC(C)C)C(=O)N[C@@H](C(C)C)C(=O)N[C@@H](CC(=O)O)C(=O)N[C@@H](CC(C)C)C(=O)N[C@@H](CC(C)C)C(=O)O1 (stereo not given in full) (ELLVDLL; linker N-C via X3) | active |
| CC(C)CCCCCCCCCC1CC(=O)N[C@@H](CCC(=O)O)C(=O)N[C@@H](CC(C)C)C(=O)N[C@@H](CC(C)C)C(=O)N[C@@H](C(C)C)C(=O)N[C@@H](CC(=O)O)C(=O)N[C@@H](CC(C)C)C(=O)N[C@@H](CC(C)C)C(=O)O1 (stereo not given in full) (ELLVDLL; linker N-C via X7) | inactive |
| CCCCCCCCCCC1CC(=O)N[C@@H](CCC(=O)O)C(=O)N[C@@H](CC(C)C)C(=O)N[C@@H](CC(C)C)C(=O)N[C@@H](C(C)C)C(=O)N[C@@H](CC(=O)O)C(=O)N[C@@H](CC(C)C)C(=O)N[C@@H](CC(C)C)C(=O)O1 (stereo not given in full) (ELLVDLL; linker N-C via X4) | active |
| CCC(C)CCCCCCCCC1CC(=O)N[C@@H](CCC(=O)O)C(=O)N[C@@H](CC(C)C)C(=O)N[C@@H](CC(C)C)C(=O)N[C@@H](C(C)C)C(=O)N[C@@H](CC(=O)O)C(=O)N[C@@H](CC(C)C)C(=O)N[C@@H](CC(C)C)C(=O)O1 (stereo not given in full) (ELLVDLL; linker N-C via X1) | active |

Call for entry CC(C)[C@@H]1NC(=O)[C@@H](C(C)C)NC(=O)[C@@H](NC(=O)CC(O)CCCCCCCCCCCCNC(=N)N)[C@@H](C)OC(=O)[C@@H](C)NC(=O)[C@@H](CC(N)=O)NC(=O)[C@@H]([C@H](C)O)NC1=O (stereo not given in full) :
inactive

====

Test system: Pre-let-7d miRNA
experiment: Inhibition of Dicer-mediated pre-let-7d miRNA (unknown origin) processing using […] as substrate incubated for 15 mins by cat-ELCCA assay
Type: nucleic-acid assay
Calls of active or inactive are those of the source. The rule behind the calls is not given here. *1 amine or outer side, *2 acyl side, *3 side chain or, on linkers, in order; H or OH if unused. Where a SMILES comes first, the peptide text is derived from it. Bridges are numbered along the chain shown (N, C = ends). The star is where a group is joined. ξ: configuration not given here. Pentadecanoyl(3ξ-OH,15-Gua) = N=C(N)NCCCCCCCCCCCCC(O)CC(=O)*; X1 = CCC(C)CCCCCCCCC(CC(=O)[*:1])O[*:2]; X2 = CCCCCCCCCCCC(CC(=O)[*:1])O[*:2]; X4 = CCCCCCCCCCC(CC(=O)[*:1])O[*:2]
Response enum: YES = active, NO = inactive

Examples from the recorded data:
| molecule | tgt | assigned.category |
| --- | --- | --- |
| CCCCCCCCCCC1CC(=O)N[C@@H](CCC(=O)O)C(=O)N[C@@H](CC(C)C)C(=O)N[C@@H](CC(C)C)C(=O)N[C@@H](C(C)C)C(=O)N[C@@H](CC(=O)O)C(=O)N[C@@H](CC(C)C)C(=O)N[C@@H](CC(C)C)C(=O)O1 (stereo not given in full) (ELLVDLL; linker N-C via X4) | Pre-let-7d miRNA | YES |
| CCCCCCCCCCCC1CC(=O)N[C@@H](CCC(=O)O)C(=O)N[C@@H](CC(C)C)C(=O)N[C@@H](CC(C)C)C(=O)N[C@@H](C(C)C)C(=O)N[C@@H](CC(=O)O)C(=O)N[C@@H](CC(C)C)C(=O)N[C@@H](CC(C)C)C(=O)O1 (stereo not given in full) (ELLVDLL; linker N-C via X2) | Pre-let-7d miRNA | YES |
| CC1NC(=O)C(CCC(N)=O)NC(=O)C(C(C)O)NC(=O)C(C(C)C)NC(=O)C(C(C)C)NC(=O)C(NC(=O)CC(O)CCCCCCCCCCCCNC(=N)N)C(C)OC1=O (stereo not given) ({Pentadecanoyl(3ξ-OH,15-Gua)}-TVVTQA; ester 1-C; configuration not given here) | Pre-let-7d miRNA | NO |
| CCC(C)CCCCCCCCC1CC(=O)N[C@@H](CCC(=O)O)C(=O)N[C@@H](CC(C)C)C(=O)N[C@@H](CC(C)C)C(=O)N[C@@H](C(C)C)C(=O)N[C@@H](CC(=O)O)C(=O)N[C@@H](CC(C)C)C(=O)N[C@@H](CC(C)C)C(=O)O1 (stereo not given in full) (ELLVDLL; linker N-C via X1) | Pre-let-7d miRNA | YES |

Please turn your attention to the following entry.
Outcome logged for CC(C)[C@@H]1NC(=O)[C@@H](C(C)C)NC(=O)[C@@H](NC(=O)CC(O)CCCCCCCCCCCCNC(=N)N)[C@@H](C)OC(=O)[C@@H](C)NC(=O)[C@@H](CC(N)=O)NC(=O)[C@@H]([C@H](C)O)NC1=O (stereo not given in full) in this assay:
NO
